Test: Metabolic stability in human liver microsomes assessed as half life
Format: ADME, Microsome
Recorded metric: half-life (min)
One number for each entry, in min.

half-life for `CNC(=O)c1cc(OC)c(O[C@@H](C)C(=O)N2CCN(c3nccc4ccccc34)C[C@H]2C)cn1` is 4

* * *

Experiment: Fraction of compound absorbed in rat at 1 mg/kg, iv and 1 mg/kg, po
Assay type: ADME, organism-based
Details: in vivo, read-out: Fabs
Recorded metric: Fa (%)
Answers are plain numbers, in %.

Recorded Fa, per entry:
In [3]: df
Out[3]:
                              record_smiles  observed_result
0  CNc1ccc2c(O[C@@H](C)C(=O)N3CCN(C(=O)c4ccccc4)C[C@H]3C)cccc2n1               60
1  CNC(=O)c1cc(OC)c(O[C@@H](C)C(=O)N2CCN(c3nccc4ccccc34)C[C@H]2C)cn1              100

Kindly give each listed record's Fa.
1. CNC(=O)c1nccc2c(O[C@@H](C)C(=O)N3CCN(C(=O)c4ccccc4)C[C@H]3C)cccc12
2. CNC(=O)c1cc(OC)c(O[C@@H](C)C(=O)N2CCN(C(=O)c3ccccc3)C[C@H]2C)cn1

1. 55
2. 100

Numbers sourced from ChEMBL document CHEMBL1155317.
